biological target: PDE4B1 (Homo sapiens); construct: made in house; host or cells: SF21 insect cells (baculovirus; virus made in SF9 cells, pCR-Bac vector); assay: Inhibition of PDE4 activity (PDE4B1, SPA assay); type: biochemical; details: recombinant PDE4B1, 0.5 μM cAMP; read-out: PDE4B1 Inhibitory values measured as -logIC50 (converted)
Sequence (Q07343 whole entry): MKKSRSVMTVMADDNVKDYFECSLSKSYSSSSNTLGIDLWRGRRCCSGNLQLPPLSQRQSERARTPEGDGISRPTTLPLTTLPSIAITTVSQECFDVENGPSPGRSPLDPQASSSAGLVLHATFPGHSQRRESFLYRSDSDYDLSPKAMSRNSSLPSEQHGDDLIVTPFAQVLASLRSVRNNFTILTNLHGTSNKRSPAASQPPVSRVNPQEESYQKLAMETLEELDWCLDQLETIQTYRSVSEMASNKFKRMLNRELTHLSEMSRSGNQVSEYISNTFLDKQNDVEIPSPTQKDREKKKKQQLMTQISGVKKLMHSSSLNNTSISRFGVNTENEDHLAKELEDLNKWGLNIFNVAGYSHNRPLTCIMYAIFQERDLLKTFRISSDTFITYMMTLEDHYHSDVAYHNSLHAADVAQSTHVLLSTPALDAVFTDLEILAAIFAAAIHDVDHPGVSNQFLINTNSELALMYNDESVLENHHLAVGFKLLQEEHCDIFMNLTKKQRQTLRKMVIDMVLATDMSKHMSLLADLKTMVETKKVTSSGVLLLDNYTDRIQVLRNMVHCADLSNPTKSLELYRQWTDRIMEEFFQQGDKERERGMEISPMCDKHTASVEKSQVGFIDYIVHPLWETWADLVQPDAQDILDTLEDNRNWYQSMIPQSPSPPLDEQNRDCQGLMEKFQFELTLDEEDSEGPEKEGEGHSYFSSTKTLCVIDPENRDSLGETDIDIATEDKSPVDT
measured parameter: IC50

May I ask what IC50 has been recorded for "COc1ccc(C2=NN(C3CCN(C(=O)[C@@H](Cc4ccc(O)cc4)NC(=O)c4c[nH]c5c(-c6c(OCC7CC7)ccc7c6OCO7)ncnc45)CC3)C(=O)[C@@H]3CCCC[C@H]23)cc1OC" ?
< 1 nM

May I ask what IC50 has been recorded for "CC[C@H](NC(=O)c1c(C)[nH]c2c(-c3c(OCC4CC4)ccc4c3OCO4)ncnc12)C(=O)N1CCC(N2N=C(c3ccc(OC)c(OC)c3)[C@H]3CCCC[C@H]3C2=O)CC1" ?
< 1 nM

May I ask what IC50 has been recorded for "COc1ccc(C2=NN(C3CCN(C(=O)[C@H](Cc4cccnc4)NC(=O)c4c[nH]c5c(-c6c(OCC7CC7)ccc7c6OCO7)ncnc45)CC3)C(=O)C3(CCCC3)C2)cc1OC" ?
1 to 10 nM

May I ask what IC50 has been recorded for "COc1ccc(C2=NN(C3CCN(C(=O)[C@H](Cc4ccccc4)NC(=O)c4c[nH]c5c(-c6c(OCC7CC7)ccc7c6OCO7)ncnc45)CC3)C(=O)[C@@H]3CCCC[C@H]23)cc1OC" ?
1 to 10 nM

May I ask what IC50 has been recorded for "COc1ccc(C2=NN(C3CCN(C(=O)[C@@H](Cc4ccc(C)cc4)NC(=O)c4c[nH]c5c(-c6c(OCC7CC7)ccc7c6OCO7)ncnc45)CC3)C(=O)[C@@H]3CCCC[C@H]23)cc1OC" ?
1 to 10 nM

Attribution: patent US20160108049A1
